test system: UO-31 renal; assay: NCI tumour cell line growth inhibition, 48 h
READOUT KIND: log10 of TGI (log10 of the value in µM)
Use the decimal logarithm of TGI (µM).

Return log10 of TGI for the following compound: CC(C)CCC[C@@H](C)C1CCC2[C@@H]3CC=C4C[C@@H](C(=O)NCCN(C)C)CC[C@]4(C)C3CC[C@@]21C (stereo not given in full) 1.74

Tell me measured log10 of TGI for Cc1cc(Nc2nc(-c3cn(-c4ccc(Cl)cc4)nn3)nc3ccccc23)n[nH]1 please. 1.05

Specify reported log10 of TGI for the compound shown: COc1ccc(C(=O)c2cc(OC)c(OC)c(OC)c2)cc1OC 1.60

Determine its reported log10 of TGI: ClC(Cl)=C1C(=C(Cl)Cl)C(Cl)(Cl)C1(Cl)Cl 0.96

Provide measured log10 of TGI value, entry: CC1CC(O)C(=O)C(O[C@@H]2C[C@@H]3CC[C@@H]4[C@H](CC[C@]5(C)C(C6=CC(=O)OC6)CC[C@]45O)[C@@]3(C=O)C[C@H]2O)O1 (stereo not given in full) -0.66

Find the measured log10 of TGI of Nc1cc2c(cc1Br)[nH]c(=O)c1ccccc12 and report it. 1.27

Provide one value: measured log10 of TGI of Nc1ccc(-c2nc3ccccc3s2)cc1C(F)(F)F 1.47

* * *

tested on: RPMI-8226 leukemia; test: NCI tumour cell line growth inhibition, 48 h
READOUT KIND: TGI (µM)
Express your answer in µM, writing the number without its unit.

Give measured TGI for CSC(=Nc1ccccc1)N(c1ccccc1)c1nc(=[N+](C)C)ss1 (RPMI-8226 leukemia). 3.14

Look up and report measured TGI (RPMI-8226 leukemia) for the following compound: c1ccc2c(c1)c1c(n2CCOCCN2CCOCC2)CCCC1 53.9

* * *

system: SK-MEL-28 melanoma; assay: NCI tumour cell line growth inhibition, 48 h
Where a SMILES comes first, the peptide text is derived from it. Bridges are numbered along the chain shown (N, C = ends). [ ]: non-standard residue; d: D form. The star is where a group is joined. ξ: configuration not given here. X26 = O=C(/C=C/C=C/C=C/C=C/C=C/C(=O)*)NC1=C(O)CCC1=O; NMeA = CN[C@@H](C)C(=O)O; ξF = NC(Cc1ccccc1)C(=O)O; ξA = CC(N)C(=O)O
READOUT KIND: TGI

State, in one line, measured TGI of COC(C)(C)[C@@H](O)[C@H]1C[C@H](C)[C@@]2(CC[C@]3(C)[C@@H]2CC[C@@H]2[C@@]4(C)CC[C@@H](OC(C)=O)C(C)(C)[C@@H]4C[C@@H](OC4OC(COC(C)=O)C(O)C(O)C4O)[C@]23C)O1 (some centres not stated) 20.4 µM

Given the molecule CC(O)CCCOC(c1ccccc1)(c1ccccc1)c1ccccc1 (configuration not stated) , write its reported TGI. 30.1 µM

Using known records, supply TGI for O=C(O)C(SC1=NNC2(C(=O)N1)c1ccccc1-c1ccccc12)SC1=NNC2(C(=O)N1)c1ccccc1-c1ccccc12 > 10 µM

Using the record for CCOC(CNCCC(=O)OC)OCC , state its measured TGI. > 10 µM

Input C=Cc1ccc(C)[n+](C[Si](C)(C)O[Si](C)(C)C[n+]2cc(C=C)ccc2C)c1 , output reported TGI. > 100 µM

Give the value of TGI reported for the following: Nc1ccccc1O.O.O=C(O)C1[O][Sb][O]C1C(=O)O (configuration not stated) 24.6 µM

Please give measured TGI of the following entry: Nc1ccc(-c2nc3ccccc3s2)cc1C(F)(F)F 33.9 µM

Given the molecule N#CC(N=Nc1ccc(Cl)cc1)c1nc2ccccc2o1 (configuration not stated) , write its reported TGI. > 100 µM

Quote TGI reported for CCC1=NC(C(F)(F)F)(C(F)(F)F)N=C(N2CCOCC2)O1 please. > 100 µM

Retrieve TGI measured for COC(=O)C1C(O)C(C(=O)OC)C(C)N(C)C1C (configuration not stated) and print it. > 100 µM

Determine its reported TGI: CC1NC(=O)[C@H](C)N(C)C(=O)[C@@H]2CCCN2C(=O)[C@@H](NC(=O)C(Cc2ccccc2)NC(=O)/C=C/C=C/C=C/C=C/C=C/C(=O)NC2=C(O)CCC2=O)COC(=O)[C@@H]2CCCN2C1=O (some centres not stated) (X26-[ξF]SP[NMeA][ξA]P; ester 2-C) > 100 µM

Note TGI for the molecule shown: CC(=O)N1CCN(c2ccc(OCC3COC(Cn4ccnc4)(c4ccc(Cl)cc4Cl)O3)cc2)CC1 (configuration not stated) > 100 µM

Give the measured TGI for CC12CCC3C(CCC4CC(OC(=O)Cc5ccc(N(CCCl)CCCl)cc5)CCC43C)C1CCC(=O)N2 (configuration not stated) 30.9 µM

Name the recorded TGI of the item COc1ccc(-c2nc(-c3cc(OC)cc(OC)c3)[nH]c2-c2ccc(OC)cc2)cc1 in your answer. > 100 µM

Supply reported TGI belonging to this molecule: COC(=O)c1cc2c(cc1CC1Cc3cc4c(cc3C1)CCC4)CCC2 80.4 µM

Output measured TGI for this item: Cc1[nH]c2ccccc2c1C1Cc2ccccc2N1C(=O)C#Cc1ccc([N+](=O)[O-])cc1 (configuration not stated) > 100 µM

Query TGI for CC(=O)O[C@H]1C(=O)[C@@]2(C)[C@H]([C@H](OC(=O)c3ccc(F)cc3)[C@]3(O)C[C@H](OC(=O)[C@H](O)[C@@H](NC(=O)c4ccccc4)c4ccccc4)C(C)=C1C3(C)C)[C@]1(OC(C)=O)CO[C@@H]1C[C@@H]2O > 25 µM
